A collection of molecules and their measured CC50
- Tested on: LOX IMVI (Melanoma)
- protocol-notes: NCI-60 screen (SRB, 48 h)
- Type: cell-based
- test-settings: Homo sapiens, read-out: LC50 (the source's name)
value-kind: CC50

| molecule | value-kind | observed-result |
| --- | --- | --- |
| CC1(C)CC[C@]2(CO)CC[C@]3(C)C(=CC[C@@H]4[C@@]5(C)CCCNC(C)(C)[C@@H]5CC[C@]43C)[C@@H]2C1 [Compound 3, azepanoerythrodiol] | CC50 | 6.05 µM |
| CC1(C)NCCC[C@]2(C)[C@H]3C=CC4=C5C[C@@](C)(CO)CC[C@]5(C)CC[C@@]4(C)[C@]3(C)CC[C@@H]12 [Compound 6, azepano-glycyrrhetol-diene] | CC50 | 29 µM |
| C[C@H]1[C@H](C)CC[C@]2(CO)CC[C@]3(C)C(=CC[C@@H]4[C@@]5(C)CCCNC(C)(C)[C@@H]5CC[C@]43C)[C@H]12 [Compound 4, azepanouvaol] | CC50 | 5.84 µM |
| CC(C)=C1CCC=C2CC[C@]3(C)[C@H](CC[C@@H]4[C@@]5(C)CCCNC(C)(C)[C@@H]5CC[C@]43C)[C@H]21 [Compound 9] | CC50 | 5.49 µM |
| C=C(C)[C@@H]1CC[C@]2(C)[C@H](CC=C3[C@@H]4[C@@H](C)[C@H](C)CC[C@]4(CO)CC[C@]32C)[C@@]1(C)CCCN [Compound 19] | CC50 | 2.86 µM |
| C=C(C)[C@@H]1CC[C@]2(C)[C@H](C=CC3=C4C[C@@](C)(CO)CC[C@]4(C)CC[C@]32C)[C@@]1(C)CCCN [Compound 20] | CC50 | 5.31 µM |

* * *

- Test system: NCI-H322M (NSC lung cancer)
- protocol-notes: NCI-60 screen (SRB, 48 h)
- test-settings: Homo sapiens

| molecule | unit | GI50 |
| --- | --- | --- |
| CC1(C)CC[C@]23CC[C@]4(C)[C@H](CC[C@@H]5[C@@]6(C)CCCNC(C)(C)[C@@H]6CC[C@]54C)[C@H]2[C@H]1OC3 [Compound 7, Azepanoallobetulin] | nM | 1640 |
| C=C(C)[C@@H]1CC[C@]2(COS(=O)(=O)c3ccc(C)cc3)CC[C@]3(C)[C@@H](CC[C@@H]4[C@@]5(C)CCCNC(C)(C)[C@@H]5CC[C@]43C)[C@@H]12 [Compound 12] | nM | 1760 |
| C=C(C)[C@@H]1CC[C@]2(C(=O)N[C@H](CO)Cc3ccccc3)CC[C@]3(C)[C@H](CC[C@@H]4[C@@]5(C)CCCNC(C)(C)[C@@H]5CC[C@]43C)[C@@H]12 [Compound 11] | nM | 1550 |
| C=C(C)[C@@H]1CC[C@]2(C)[C@H](C=CC3=C4C[C@@](C)(CO)CC[C@]4(C)CC[C@]32C)[C@@]1(C)CCCN [Compound 20] | nM | 1570 |
| C=C(C)[C@@H]1CC[C@]2(C)[C@H](CC=C3[C@@H]4[C@@H](C)[C@H](C)CC[C@]4(CO)CC[C@]32C)[C@@]1(C)CCCN [Compound 19] | nM | 1740 |
| Cc1ccc(S(=O)(=O)OC[C@@]2(C)CC[C@]3(C)CC[C@]4(C)C(=C3C2)C=C[C@@H]2[C@@]3(C)CCCNC(C)(C)[C@@H]3CC[C@]24C)cc1 [Compound 16] | nM | 1620 |
| CC1(C)NCCC[C@]2(C)[C@H]3C=CC4=C5C[C@@](C)(CO)CC[C@]5(C)CC[C@@]4(C)[C@]3(C)CC[C@@H]12 [Compound 6, azepano-glycyrrhetol-diene] | nM | 4780 |
| CC(C)=C1CCC=C2CC[C@]3(C)[C@H](CC[C@@H]4[C@@]5(C)CCCNC(C)(C)[C@@H]5CC[C@]43C)[C@H]21 [Compound 9] | nM | 1680 |
| CC1(C)CC[C@]2(CO)CC[C@]3(C)C(=CC[C@@H]4[C@@]5(C)CCCNC(C)(C)[C@@H]5CC[C@]43C)[C@@H]2C1 [Compound 3, azepanoerythrodiol] | nM | 3690 |
| C=C(C)[C@@H]1CCC=C2CC[C@]3(C)[C@H](CC[C@@H]4[C@@]5(C)CCCNC(C)(C)[C@@H]5CC[C@]43C)[C@H]21 [Compound 8] | nM | 1730 |
| C[C@H]1[C@H](C)CC[C@]2(C(=O)Nc3ccc4ncccc4c3)CC[C@]3(C)C(=CC[C@@H]4[C@@]5(C)CCCNC(C)(C)[C@@H]5CC[C@]43C)[C@H]12 [Compound 14] | nM | 1720 |

* * *

A collection of compounds and their measured GI50
- Tested on: A549/ATCC (NSC lung cancer)
- protocol-notes: NCI-60 screen (SRB, 48 h)
- test-settings: Homo sapiens, A549

| compound | target-under-test | GI50 |
| --- | --- | --- |
| CC1(C)CC[C@]23CC[C@]4(C)[C@H](CC[C@@H]5[C@@]6(C)CCCNC(C)(C)[C@@H]6CC[C@]54C)[C@H]2[C@H]1OC3 [Compound 7, Azepanoallobetulin] | A549/ATCC (NSC lung cancer) | 1810 nM |
| CC1(C)CC[C@]2(CO)CC[C@]3(C)C(=CC[C@@H]4[C@@]5(C)CCCNC(C)(C)[C@@H]5CC[C@]43C)[C@@H]2C1 [Compound 3, azepanoerythrodiol] | A549/ATCC (NSC lung cancer) | 4620 nM |
| C=C(C)[C@@H]1CC[C@]2(C)[C@H](C=CC3=C4C[C@@](C)(CO)CC[C@]4(C)CC[C@]32C)[C@@]1(C)CCCN [Compound 20] | A549/ATCC (NSC lung cancer) | 1600 nM |
| C=C(C)[C@@H]1CC[C@]2(C(=O)N[C@H](CO)Cc3ccccc3)CC[C@]3(C)[C@H](CC[C@@H]4[C@@]5(C)CCCNC(C)(C)[C@@H]5CC[C@]43C)[C@@H]12 [Compound 11] | A549/ATCC (NSC lung cancer) | 960 nM |
| Cc1ccc(S(=O)(=O)OC[C@@]2(C)CC[C@]3(C)CC[C@]4(C)C(=C3C2)C=C[C@@H]2[C@@]3(C)CCCNC(C)(C)[C@@H]3CC[C@]24C)cc1 [Compound 16] | A549/ATCC (NSC lung cancer) | 1860 nM |
| C=C(C)[C@@H]1CC[C@]2(C)[C@H](CC=C3[C@@H]4[C@@H](C)[C@H](C)CC[C@]4(CO)CC[C@]32C)[C@@]1(C)CCCN [Compound 19] | A549/ATCC (NSC lung cancer) | 1590 nM |
| C=C(C)C1CCC2(CO)CCC3(C)C(CCC4C5(C)CCCNC(C)(C)C5CCC43C)C12 (stereo not drawn) [Compound 1, Azepanobetulin] | A549/ATCC (NSC lung cancer) | 1730 nM |
| C=C(C)[C@@H]1CC[C@]2(COS(=O)(=O)c3ccc(C)cc3)CC[C@]3(C)[C@@H](CC[C@@H]4[C@@]5(C)CCCNC(C)(C)[C@@H]5CC[C@]43C)[C@@H]12 [Compound 12] | A549/ATCC (NSC lung cancer) | 1870 nM |
| C=C(C)[C@@H]1CCC=C2CC[C@]3(C)[C@H](CC[C@@H]4[C@@]5(C)CCCNC(C)(C)[C@@H]5CC[C@]43C)[C@H]21 [Compound 8] | A549/ATCC (NSC lung cancer) | 2020 nM |

* * *

- Test system: NCI-H322M (NSC lung cancer)
- protocol-notes: NCI-60 screen (SRB, 48 h)
- test-settings: Homo sapiens
value-kind: GI50 (nM)

| molecule | target-under-test | observed-result |
| --- | --- | --- |
| Cc1ccc(S(=O)(=O)OC[C@]23CCC(C)(C)C[C@H]2C2=CC[C@@H]4[C@@]5(C)CCCNC(C)(C)[C@@H]5CC[C@@]4(C)[C@]2(C)CC3)cc1 [Compound 15] | NCI-H322M (NSC lung cancer) | 14900 |
| C[C@H]1[C@H](C)CC[C@]2(CO)CC[C@]3(C)C(=CC[C@@H]4[C@@]5(C)CCCNC(C)(C)[C@@H]5CC[C@]43C)[C@H]12 [Compound 4, azepanouvaol] | NCI-H322M (NSC lung cancer) | 1730 |
| C=C(C)C1CCC2(CO)CCC3(C)C(CCC4C5(C)CCCNC(C)(C)C5CCC43C)C12 (stereo not drawn) [Compound 1, Azepanobetulin] | NCI-H322M (NSC lung cancer) | 1630 |

* * *

A collection of compounds and their measured CC50
- System: SK-MEL-5 (Melanoma)
- protocol-notes: NCI-60 screen (SRB, 48 h)
- test-settings: Homo sapiens, SK-MEL-5, read-out: LC50
value-kind: CC50 (µM)

| compound | value-kind | observed-result |
| --- | --- | --- |
| CC(C)=C1CCC=C2CC[C@]3(C)[C@H](CC[C@@H]4[C@@]5(C)CCCNC(C)(C)[C@@H]5CC[C@]43C)[C@H]21 [Compound 9] | CC50 | 5.56 |
| C[C@H]1[C@H](C)CC[C@]2(C(=O)Nc3ccc4ncccc4c3)CC[C@]3(C)C(=CC[C@@H]4[C@@]5(C)CCCNC(C)(C)[C@@H]5CC[C@]43C)[C@H]12 [Compound 14] | CC50 | 5.94 |
| CC1(C)CC[C@]2(CO)CC[C@]3(C)C(=CC[C@@H]4[C@@]5(C)CCCNC(C)(C)[C@@H]5CC[C@]43C)[C@@H]2C1 [Compound 3, azepanoerythrodiol] | CC50 | 5.86 |
| C=C(C)[C@@H]1CC[C@]2(C)[C@H](CC=C3[C@@H]4[C@@H](C)[C@H](C)CC[C@]4(CO)CC[C@]32C)[C@@]1(C)CCCN [Compound 19] | CC50 | 3 |
| CC1(C)NCCC[C@]2(C)[C@H]3C=CC4=C5C[C@@](C)(CO)CC[C@]5(C)CC[C@@]4(C)[C@]3(C)CC[C@@H]12 [Compound 6, azepano-glycyrrhetol-diene] | CC50 | 14 |
| CC1(C)CC[C@]23CC[C@]4(C)[C@H](CC[C@@H]5[C@@]6(C)CCCNC(C)(C)[C@@H]6CC[C@]54C)[C@H]2[C@H]1OC3 [Compound 7, Azepanoallobetulin] | CC50 | 5.53 |
